Molecular target: Disintegrin and metalloproteinase domain-containing protein 17 (Homo sapiens, UniProt P78536)
Sequence (P78536 whole entry, the tested form may be a part): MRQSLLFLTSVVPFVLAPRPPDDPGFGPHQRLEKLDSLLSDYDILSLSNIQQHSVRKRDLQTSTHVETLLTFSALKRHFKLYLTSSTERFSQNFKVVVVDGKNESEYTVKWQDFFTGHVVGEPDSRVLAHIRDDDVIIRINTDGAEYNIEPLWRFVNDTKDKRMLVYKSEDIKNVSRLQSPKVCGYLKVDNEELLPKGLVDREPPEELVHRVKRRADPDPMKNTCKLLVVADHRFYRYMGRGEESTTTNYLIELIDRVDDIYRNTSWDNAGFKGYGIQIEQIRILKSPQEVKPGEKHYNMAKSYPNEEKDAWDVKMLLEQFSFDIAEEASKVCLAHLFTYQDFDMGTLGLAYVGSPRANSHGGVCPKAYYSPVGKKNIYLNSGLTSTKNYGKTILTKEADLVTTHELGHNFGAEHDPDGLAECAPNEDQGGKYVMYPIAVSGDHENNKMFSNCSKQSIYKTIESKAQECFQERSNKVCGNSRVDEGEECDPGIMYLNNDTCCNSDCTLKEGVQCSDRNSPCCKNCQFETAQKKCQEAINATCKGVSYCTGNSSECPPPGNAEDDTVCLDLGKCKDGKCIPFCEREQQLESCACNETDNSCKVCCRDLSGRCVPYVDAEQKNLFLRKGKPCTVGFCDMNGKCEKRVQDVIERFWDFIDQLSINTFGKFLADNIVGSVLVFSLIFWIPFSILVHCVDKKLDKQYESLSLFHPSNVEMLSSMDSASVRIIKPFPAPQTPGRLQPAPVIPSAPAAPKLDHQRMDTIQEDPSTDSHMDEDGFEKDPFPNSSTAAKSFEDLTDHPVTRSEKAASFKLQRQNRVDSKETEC
Test: Inhibition of TACE in human mononuclear cells assessed as inhibition of LPS-induced TNF-alpha production measured after 4 hrs in presence of LPS by ELISA
Entries and their IC50 values follow.

Cc1cc(F)ccc1COc1ccc(S(=O)(=O)N2C[C@H](O)CC(C)(C)[C@@H]2C(=O)NO)cc1    < 10 µM
Cc1ccc(F)cc1COc1ccc(S(=O)(=O)N2CC(=O)N[C@@H](C)[C@@H]2C(=O)NO)cc1    < 10 µM
CC1(C)C[C@@H](O)CN(S(=O)(=O)c2ccc(OCc3ccc(Cl)cc3Cl)cc2)[C@H]1C(=O)NO    20 to 40 µM
CNC(=O)N1CCN(S(=O)(=O)c2ccc(OCc3cc(F)ccc3C)cc2)[C@@H](C(=O)NO)[C@@H]1C    < 10 µM

-- ask Answer with reported IC50 of C[C@@]1(O)CCCN(S(=O)(=O)c2ccc(OCc3ccccc3Cl)cc2)[C@H]1C(=O)NO
-- reply < 10 µM

-- ask Answer with reported IC50 of C[C@@]1(O)CCCN(S(=O)(=O)c2ccc(OCc3ccc(F)cc3Cl)cc2)[C@H]1C(=O)NO
-- reply 10 to 20 µM

-- ask Answer with reported IC50 of C[C@@]1(O)CCCN(S(=O)(=O)c2ccc(OCc3ccccc3F)cc2)[C@H]1C(=O)NO
-- reply 20 to 40 µM

-- ask Answer with reported IC50 of Cc1cc(F)ccc1COc1ccc(S(=O)(=O)N2CC(=O)N[C@@H](C)[C@@H]2C(=O)NO)cc1
-- reply < 10 µM

-- ask Answer with reported IC50 of Cc1ccccc1COc1ccc(S(=O)(=O)N2CCC[C@](C)(O)[C@@H]2C(=O)NO)cc1
-- reply < 10 µM

-- ask Answer with reported IC50 of CC1(C)C[C@@H](O)CN(S(=O)(=O)c2ccc(OCc3cc(Cl)ccc3F)cc2)[C@H]1C(=O)NO
-- reply 10 to 20 µM

-- ask Answer with reported IC50 of Cc1ccc(Cl)cc1COc1ccc(S(=O)(=O)N2C[C@H](O)CC(C)(C)[C@@H]2C(=O)NO)cc1
-- reply 10 to 20 µM

---

Entries and their IC50 values follow.
Biological target: Aggrecanase (Sus scrofa, UniProt F1S1A7+F1SHP0)
Experiment: Inhibition of aggrecanase in primary porcine chondrocytes assessed as inhibition of 35S-proteoglycan release measured after 9 to 12 hrs by liquid scintillation counting method
Format: cell-based

CCc1ccccc1COc1ccc(S(=O)(=O)N2CCN(C(=O)NC)[C@@H](C)[C@@H]2C(=O)NO)cc1    < 0.01 µM
CNC(=O)N1CCN(S(=O)(=O)c2ccc(OCc3cc(F)ccc3C)cc2)[C@@H](C(=O)NO)[C@@H]1C    < 0.01 µM
CC1(C)C[C@@H](O)CN(S(=O)(=O)c2ccc(OCc3ccccc3Br)cc2)[C@H]1C(=O)NO    0.01 to 0.02 µM
C[C@@]1(O)CCCN(S(=O)(=O)c2ccc(OCc3ccccc3F)cc2)[C@H]1C(=O)NO    0.01 to 0.02 µM
Cc1c(F)cccc1COc1ccc(S(=O)(=O)N2C[C@H](O)CC(C)(C)[C@@H]2C(=O)NO)cc1    < 0.01 µM

-- ask Answer with reported IC50 of C[C@@]1(O)CCCN(S(=O)(=O)c2ccc(OCc3ccc(F)cc3F)cc2)[C@H]1C(=O)NO
-- reply 0.01 to 0.02 µM

-- ask Answer with reported IC50 of Cc1ccccc1COc1ccc(S(=O)(=O)N2CCC[C@](C)(O)[C@@H]2C(=O)NO)cc1
-- reply 0.01 to 0.02 µM

-- ask Answer with reported IC50 of Cc1ccc(F)cc1COc1ccc(S(=O)(=O)N2CC(=O)N[C@@H](C)[C@@H]2C(=O)NO)cc1
-- reply < 0.01 µM
